- Tested on: TK-10
- procedure-details: NCI tumour cell line growth inhibition, 48 h
Calls of active or inactive are those of the source. Cut-off read from the data, not from the text of the source: active = GI50 up to about 1.1 µM and inactive = higher.
measured-parameter: GI50

Some solved entries appear below for comparison.
{"compound": "COc1ccc(/N=c2/oc3ccccc3cc2C(N)=O)cc1", "result": "22.5 µM (inactive)"}
{"compound": "C#CCOC(=O)C(N)CS (stereo unspecified)", "result": "> 100 µM (inactive)"}
{"compound": "O=C1C=CN(C2OC(CO)C(O)C2O)C(=O)C1 (stereo unspecified)", "result": "2210 µM (inactive)"}
{"compound": "CCC(C)CC(C)CC(C)/C=C(\\C)C1=C(C)CC(C)(O)O1 (stereo unspecified)", "result": "> 100 µM (inactive)"}
{"compound": "CC(=O)NC(Cc1ccc(OP(=O)(OCc2ccc([N+](=O)[O-])o2)N(C)CCCCCl)cc1)C(=O)NC(C)c1ccc(OCC2CCCCC2)c(C(N)=O)c1 (stereo unspecified)", "result": "11.4 µM (inactive)"}
{"compound": "COc1ccc(-c2oc3cc(OC(C)=O)cc(OC(C)=O)c3c(=O)c2OC)cc1", "result": "21.8 µM (inactive)"}

Task: Need GI50 of CC1=NC(=N)N=C(C)C1/N=N/c1ccc2[nH]c(C)nc2c1 (stereo unspecified) , thanks.
Result: > 100 µM (inactive)

Task: What do we get for CCC(C(=O)c1ccc(OC)c(OC)c1)N(C(=O)C(F)(F)F)C(C)c1ccccc1 (stereo unspecified) ?
Result: > 100 µM (inactive)

Task: What do we get for CC(=O)O[C@H]1[C@@H](OC2CCCC2(c2ccccc2)c2ccccc2)O[N+]([O-])=C[C@@H]1c1ccccc1 (stereo partly specified) ?
Result: 9.71 µM (inactive)

Task: What do we get for COc1ccc(C2C=C(c3ccc(C)cc3)N(c3ccc(OC)cc3[N+](=O)[O-])C3C(=O)OC(=O)C23)c(OC)c1 (stereo unspecified) ?
Result: 47.5 µM (inactive)

Task: What do we get for COc1cc(/C=C(\C#N)c2nc3ccccc3o2)ccc1O ?
Result: 24.4 µM (inactive)

Task: What do we get for COc1ccc2c(c1)CCCN1CCc3ccccc3C21 (stereo unspecified) ?
Result: 43.1 µM (inactive)

Task: What do we get for O=C1c2ccccc2C2CNC1(O)c1ccccc12 (stereo unspecified) ?
Result: > 100 µM (inactive)

---

List of GI50 values.
- Test system: NCI-H460
- procedure-details: NCI tumour cell line growth inhibition, 48 h
Active and inactive are the calls of the source. No stated cut-off is given here; in the data, active = GI50 up to about 1.1 µM and inactive = higher.

Some solved entries appear below for comparison.
{"compound": "CCOC(=O)C1=C(C)N(Cc2ccccc2)C(=O)C1CC#N (stereo unspecified)", "tested-target": "NCI-H460", "GI50": "> 100 µM (inactive)"}
{"compound": "Cc1ccc(-c2cs/c(=N\\c3ccccc3)n2NC(=O)c2ccncc2)cc1", "tested-target": "NCI-H460", "GI50": "36.3 µM (inactive)"}
{"compound": "CC(C)CC(C(N)=O)C(=O)NC(Cc1ccccc1)NC(=O)CNC(=O)C(C)NC(=O)C(N)Cc1ccc(O)cc1 (stereo unspecified)", "tested-target": "NCI-H460", "GI50": "> 100 µM (inactive)"}
{"compound": "CCN(CC)C(=O)CCN1CC1", "tested-target": "NCI-H460", "GI50": "> 10 µM (inactive)"}
{"compound": "Cc1c(C(=O)/C=C/c2ccc3c(c2)OCO3)[n+]([O-])c2ccccc2[n+]1[O-]", "tested-target": "NCI-H460", "GI50": "28.4 µM (inactive)"}

Task: Need GI50 of Cc1nc2[nH]ncn2c(=O)c1CCCl , thanks.
Result: > 10 µM (inactive)

---

- System: HCT-116
- procedure-details: NCI tumour cell line growth inhibition, 48 h
The source made the active and inactive calls. No stated cut-off is given here; in the data, active = GI50 up to about 1.1 µM and inactive = higher.
List of GI50 values.

{"compound": "Cc1cc2oc(-c3ccccc3)c(C)c(=O)c2c2c1OC(C)(C)S2", "result": "71 µM (inactive)"}
{"compound": "CCOc1cc2c(=O)oc3c(OC)ccc4ccc(c1OC)c2c43", "result": "6.64 µM (inactive)"}
{"compound": "COC1=C(C(=O)OC(C)(C)C)[C@]2(C)C(C(=O)OC(C)(C)C)C(OC)=C(C(=O)OC(C)(C)C)[C@]2(C)C1C(=O)OC(C)(C)C (stereo not given in full)", "result": "96.4 µM (inactive)"}

Task: Need GI50 of O=[N+]([O-])c1cc(F)ccc1S(=O)(=O)c1ccccc1 , thanks.
Result: > 10 µM (inactive)

Task: What do we get for CC(=O)c1ccc(NCN2C(=O)c3ccccc3C2=O)cc1 ?
Result: > 100 µM (inactive)

Task: What do we get for CC1CC(C)(O)CC(C(O)CC2CC(=O)NC(=O)C2)C1=O (stereo not given) ?
Result: 0.0308 µM (active)

---

- Tested on: K562
- procedure-details: NCI tumour cell line growth inhibition, 48 h
The source made the active and inactive calls. No stated cut-off is given here; in the data, active = GI50 up to about 1.1 µM and inactive = higher.
measured-parameter: GI50

{"compound": "CSc1c(C(=O)Nc2ccccc2)c(N)nn1-c1ccccc1", "GI50": "> 100 µM (inactive)"}
{"compound": "CC(C)(C)c1ccc(O)c(C(O)c2ccncc2)c1 (stereo unspecified)", "GI50": "61.4 µM (inactive)"}
{"compound": "CC[P+](C)(Cc1ccccc1)c1ccccc1 (stereo unspecified)", "GI50": "> 100 µM (inactive)"}

Task: Need GI50 of COc1ccc(S(=O)(=O)NNS(C)(=O)=O)cc1OC , thanks.
Result: > 100 µM (inactive)

Task: What do we get for O=C1C=CN(C2OC(CO)C(O)C2O)C(=O)C1 (stereo unspecified) ?
Result: 1.58 µM (inactive)

Task: What do we get for CC[C@@H]1OC2(C)CC(S(=O)(=O)c3ccccc3)CC1O2 (stereo partly specified) ?
Result: > 100 µM (inactive)

Task: What do we get for O=S(=O)(Cc1nc2ccccc2s1)c1nc2ccccc2s1 ?
Result: 12.6 µM (inactive)

Task: What do we get for COc1cc(C)cc(C(=O)OCc2ccccc2)c1C1=C(Cl)C(=O)C(Cl)=CC1=O ?
Result: 2.27 µM (inactive)

Task: What do we get for Cn1c2ccccc2n2c(=O)c3c(c(C#N)c12)CCCC3 ?
Result: > 100 µM (inactive)

Task: What do we get for O=[N+]([O-])c1cnc(N(CCO)CCO)s1 ?
Result: > 100 µM (inactive)

Task: What do we get for Cc1cc(C)c2c(c1)CN1CN2Cc2cc(C)cc(C)c21 ?
Result: 27.7 µM (inactive)

---

- Tested on: SF-268
- procedure-details: NCI tumour cell line growth inhibition, 48 h
Calls of active or inactive are those of the source. Cut-off read from the data, not from the text of the source: active = GI50 up to about 1.1 µM and inactive = higher.
List of GI50 values.

Some solved entries appear below for comparison.
{"molecule": "CN1CCN(c2ccc3c(c2)NCC(=O)N3)CC1", "GI50": "> 100 µM (inactive)"}
{"molecule": "COc1ccc(C2C=C(c3ccc(C)cc3)N(c3ccc(OC)cc3[N+](=O)[O-])C3C(=O)OC(=O)C23)c(OC)c1 (stereo not drawn)", "GI50": "18.5 µM (inactive)"}
{"molecule": "COc1ccc(/C=N/N=C(\\N)NO)c(OC)c1OC", "GI50": "24.7 µM (inactive)"}

Task: Entry O=[N+]([O-])c1cc(F)ccc1S(=O)(=O)c1ccccc1 , system SF-268: what GI50 was measured?
Result: > 10 µM (inactive)

---

- System: IGROV-1
- procedure-details: NCI tumour cell line growth inhibition, 48 h
Active and inactive are the calls of the source. No stated cut-off is given here; in the data, active = GI50 up to about 1.1 µM and inactive = higher.
Pick one: active, inactive

See these solved cases before continuing.
{"molecule": "CN(C)CCCCN1CCc2c(n(C)c3ccccc23)C1=O", "qualitative-label": "inactive"}
{"molecule": "CC(C)/C(Cl)=N\\OC(=O)Nc1cccc(Cl)c1", "qualitative-label": "inactive"}
{"molecule": "O=C1C=CN(C2OC(CO)C(O)C2O)C(=O)C1 (stereo not drawn)", "qualitative-label": "inactive"}
{"molecule": "COc1cc(/C=C(\\C)c2ccc3c(c2)OCO3)cc(OC)c1OC", "qualitative-label": "inactive"}
{"molecule": "[N-]=[N+]=NC(c1ccccc1)(c1ccccc1)c1ccccc1", "qualitative-label": "inactive"}

Please examine the following record next.
Task: // param item: Clc1c(C(Cl)(Cl)Cl)nsc1N1CCCCC1 ; yields the recorded call
Result: inactive

---

- Tested on: M14
- procedure-details: NCI tumour cell line growth inhibition, 48 h
Active and inactive are the calls of the source. No stated cut-off is given here; in the data, active = GI50 up to about 1.1 µM and inactive = higher.
measured-parameter: GI50

Some solved entries appear below for comparison.
{"molecule": "CC1(C(=O)Nc2ccc3ccccc3c2)CC2(C)CC(C)(C1)C(O)NC2=O (stereo unspecified)", "result": "> 100 µM (inactive)"}
{"molecule": "COC(=O)[C@@]1(Cc2ccc(O)cc2)C[C@@H]2Cc3ccccc3N2N1", "result": "38.8 µM (inactive)"}

Task: Need GI50 of Cc1nc2ccccc2c(=O)n1/N=C(\N=N\c1ccccc1Cl)c1ccccc1Cl , thanks.
Result: > 100 µM (inactive)

Task: What do we get for O=C(CCC(=O)Nc1cccc(Cl)c1)CC(=O)c1ccc(F)cc1 ?
Result: > 100 µM (inactive)

Task: What do we get for CC(C)/C(Cl)=N\OC(=O)Nc1cccc(Cl)c1 ?
Result: 0.305 µM (active)

Task: What do we get for c1cc2c(s1)-c1sccc1C21OCCO1 ?
Result: > 100 µM (inactive)

Task: What do we get for C/C(=N\NC(=O)c1ccncc1)c1ccccc1Cl ?
Result: > 100 µM (inactive)

Task: What do we get for OC12c3ccccc3C1CCCCCCCCCC21OCCO1 (stereo unspecified) ?
Result: > 100 µM (inactive)

Task: What do we get for CCn1c(CCl)nc2c1C(=O)c1ccccc1C2=O ?
Result: 1.63 µM (inactive)

Task: What do we get for O=C(OCc1ccccc1)c1ccccc1-c1c2ccc(=O)cc-2oc2cc(OCc3ccccc3)ccc12 ?
Result: 15.8 µM (inactive)

Task: What do we get for CCCN1CN(C(C(=O)N[C@@H]2C(=O)N3C(C(=O)O)=C(C)CSC23)c2ccccc2)CSC1=S (stereo partly specified) ?
Result: > 100 µM (inactive)

Task: What do we get for CCOC(=O)Cn1nnc2cc(Nc3c(C)[n+]([O-])c4cc(F)c(OCC)cc4[n+]3[O-])ccc21 ?
Result: > 100 µM (inactive)

Every entry's value here was drawn from ChEMBL document CHEMBL1201862.
